# Test system: COLO 205 colon
# experimental-details: NCI-60 one-dose screen, 48 h (100 = growth as untreated, 0 = no growth, -100 = all killed)
# condition-details: 10 µM unless noted
# Protocol: Cells are grown in 96 well plates and exposed to the test compound for 48 hours. Compounds are tested at a single concentration, which is 10^-5 M for most compounds. The reported endpoint is percent growth (GI% or GIPRCNT), where numbers from 0 - 100% represent growth inhibition, and numbers from -100% - 0 represent cell death. For example, a value of 40 represents 60% growth inhibition. A value of 0 means no net growth occurred over the course of the experiment. […]
Compounds without any hit were thinned out: in the full panel of roughly 83,000, 20% have a hit. Activity calls are given as the source filed them. Rule for the calls: active = growth percent below 10; inactive = the rest.
readout-label: growth

Known growth results, listed for orientation:
[[record]]
smiles = "O=C1Nc2ccc(F)cc2/C1=C\\c1c(-c2ccccc2)nc2ccccn12"
recorded_measurement = "91.9% (inactive)"

[[record]]
smiles = "CCN(CC)CCn1c(=O)c2cc(OC)c(OC)cc2c2ccc3cc4c(cc3c21)OCO4"
recorded_measurement = "30.2% (inactive)"

[[record]]
smiles = "CC(=O)[C@H]1CCC/C=C/[C@@H]2C[C@H](O)C[C@H]2[C@H](O)/C=C/C(=O)O1"
recorded_measurement = "-94.8% (active)"

[[record]]
smiles = "NC1=NN=C(N)C1=Cc1cc2ccccc2n2nnnc12"
recorded_measurement = "99.7% (inactive)"


Please find the next compound below.
Lookup: Which measured growth belongs to C#Cc1cccc(NC(=O)Nc2cccc(NC(=O)CCl)c2)c1 , tested on COLO 205 colon?
Found: -51.3% [8.25 µM] (active)
